# ΔTm measurements, system: Serine/threonine-protein kinase pim-2 (Homo sapiens)
# Sequence (Q9P1W9 whole entry, looked up): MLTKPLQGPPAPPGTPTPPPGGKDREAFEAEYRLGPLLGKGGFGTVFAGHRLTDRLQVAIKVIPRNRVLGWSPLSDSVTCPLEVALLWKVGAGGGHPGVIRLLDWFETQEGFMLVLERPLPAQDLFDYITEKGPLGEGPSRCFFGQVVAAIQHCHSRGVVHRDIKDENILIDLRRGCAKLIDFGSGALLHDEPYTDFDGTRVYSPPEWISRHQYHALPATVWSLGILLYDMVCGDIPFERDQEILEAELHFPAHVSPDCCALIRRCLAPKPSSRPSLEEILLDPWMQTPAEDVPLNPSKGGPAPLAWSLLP
Note: unit °C is implicit; provide only the numeric part.

{"compound": "O=C1NC(=O)c2c1c1c3ccccc3n3c1c1c2c2ccccc2n1C1CCC3O1", "target_of_assay": "Serine/threonine-protein kinase pim-2 (Homo sapiens)", "readout": "ΔTm", "assay_result": 5.5}

Entry Cc1nc(Nc2ncc(C(=O)Nc3c(C)cccc3Cl)s2)cc(N2CCN(CCO)CC2)n1 — recorded ΔTm = 0

Entry Cn1cc(/C=C2/C(=O)Nc3ccc(S(N)(=O)=O)cc32)c2ccccc21 — recorded ΔTm = 8.2

Entry C[S+]([O-])c1ccc(-c2nc(-c3ccc(F)cc3)c(-c3ccncc3)[nH]2)cc1 (stereo not given) [SB-203580] — recorded ΔTm = 0

Entry CSc1nc(-c2ccc(F)cc2)c(-c2ccnc(NC(C)c3ccccc3)c2)[nH]1 (racemic) — recorded ΔTm = -0.2

###

- target_of_assay: UniProtKB P24941
Items are presented alongside their recorded ΔTm.
Note: unit °C is implicit; provide only the numeric part.

Completed entries (count: 3):
{"smiles_notation": "O=C(Nc1cccc(Nc2cc(Nc3cccc(C(F)(F)F)c3)ncn2)c1)C1CC1", "ΔTm (°C)": -1.5}
{"smiles_notation": "Nc1nc(Nc2ccc(S(N)(=O)=O)cc2)nn1C(=S)Nc1c(F)cccc1F", "ΔTm (°C)": 15.9}
{"smiles_notation": "N#C/C(=C1/Nc2ccccc2S1)c1ccnc(NCCc2cccnc2)n1", "ΔTm (°C)": 6.3}

Sample C#Cc1cccc(Nc2ncnc3cc(OCCOC)c(OCCOC)cc23)c1 , system: UniProtKB P24941. Its ΔTm is -0.6

Sample O=c1ccc2ccc(O)c(O)c2o1 , system: UniProtKB P24941. Its ΔTm is 0.7

Sample COc1nccc(-c2c(-c3ccc(F)cc3)ncn2[C@H]2CC[C@H](O)CC2)n1 , system: UniProtKB P24941. Its ΔTm is -0.6

###

# ΔTm measurements, system: UniProt P24941
Answer as a quantity: numeral, then unit.

Completed entries (count: 3):
{"molecule": "O=C(O)/C=C/c1cc(CO)ccc1CO", "target_of_assay": "UniProt P24941", "readout": "ΔTm", "assay_result": "0.9 °C"}
{"molecule": "CC(C)(C)n1nc(-c2ccc(Cl)cc2)c2c(N)ncnc21", "target_of_assay": "UniProt P24941", "readout": "ΔTm", "assay_result": "0.7 °C"}
{"molecule": "Ic1cccc(CSc2nnc(-c3ccncc3)o2)c1", "target_of_assay": "UniProt P24941", "readout": "ΔTm", "assay_result": "-0.3 °C"}

Sample COc1cc2c(cc1OC)-c1n[nH]c(Nc3cccc(F)c3)c1C2 , system: UniProt P24941. Its ΔTm is 0 °C

Sample CN(C)c1ncnc2nc[nH]c12 [DIMETHYLADENINE] , system: UniProt P24941. Its ΔTm is 0.3 °C

Sample Cc1cc(Nc2nc(-c3ccccc3)nc3ccccc23)n[nH]1 , system: UniProt P24941. Its ΔTm is 3 °C

Sample N#C/C(=C\c1ccc(O)c(O)c1)C(=O)Nc1ccccc1 , system: UniProt P24941. Its ΔTm is 1.1 °C

Sample CN1CCc2[nH]c(=S)c(C#N)c(-c3cccs3)c2C1 , system: UniProt P24941. Its ΔTm is 0 °C

Sample O=C1Nc2ccc(I)cc2/C1=C1/Nc2ccccc2/C1=N\O , system: UniProt P24941. Its ΔTm is 6.8 °C

Sample CN(C)C[C@@H]1CCn2cc(c3ccccc32)C2=C(C(=O)NC2=O)c2cn(c3ccccc23)CCO1 [RUBOXISTAURIN] , system: UniProt P24941. Its ΔTm is 0.9 °C

Sample CN(c1cccnc1)c1cc2c(Nc3ccc(F)c(Cl)c3)c(C#N)cnc2cn1 , system: UniProt P24941. Its ΔTm is -0.5 °C

Sample CCOC(=O)c1cnc2oc3ccc(O)cc3c2c1-c1ccccc1 , system: UniProt P24941. Its ΔTm is 1 °C

Sample C=CNC#N , system: UniProt P24941. Its ΔTm is -0.2 °C

Sample CC(C)n1cnc2c(NCc3ccccc3)nc(NCCCO)nc21 , system: UniProt P24941. Its ΔTm is 0.9 °C

Sample CN1CCC(Nc2ncc3ncnc(Nc4ccc(F)c(Cl)c4)c3n2)CC1 [FALNIDAMOL] , system: UniProt P24941. Its ΔTm is 0.1 °C

Sample NCCNS(=O)(=O)c1cccc2c(Cl)cccc12 , system: UniProt P24941. Its ΔTm is 0.1 °C

Sample O=C1NC(=O)c2c1c1c3ccccc3n3c1c1c2c2ccccc2n1C1CCC3O1 , system: UniProt P24941. Its ΔTm is 0.2 °C

Sample Cn1cc(C2=C(c3cn(CCCSC(=N)N)c4ccccc34)C(=O)NC2=O)c2ccccc21 , system: UniProt P24941. Its ΔTm is 8.4 °C

Sample O=S(=O)(NCCNC/C=C/c1ccc(Br)cc1)c1cccc2cnccc12 , system: UniProt P24941. Its ΔTm is -0.5 °C

Sample Cn1cc(C2=C(c3cn(CCCN)c4ccccc34)C(=O)NC2=O)c2ccccc21 , system: UniProt P24941. Its ΔTm is 3 °C

Sample N#C/C(=C\c1ccc(O)c(O)c1)C(=O)NCc1ccccc1 , system: UniProt P24941. Its ΔTm is 0.9 °C

Sample Nc1n[nH]c2nnc(-c3c(-c4ccccc4)nn4ccccc34)cc12 , system: UniProt P24941. Its ΔTm is 0.1 °C

Sample COc1cc(O)c2c(c1)oc(=O)c1c3cc(O)c(O)cc3oc21 [WEDELOLACTONE] , system: UniProt P24941. Its ΔTm is -4.5 °C

Sample Nc1nccc(-c2c(-c3ccc(F)cc3)ncn2C2CCNCC2)n1 , system: UniProt P24941. Its ΔTm is -0.8 °C

Sample O=c1c2ccccc2[nH]c(=S)n1CCN1CCC(=C(c2ccc(F)cc2)c2ccc(F)cc2)CC1 [DIACYLGLYCEROL KINASE INHIBITOR II] , system: UniProt P24941. Its ΔTm is 0.9 °C

Sample Cc1cncc2cccc(S(=O)(=O)N3CCCNC[C@@H]3C)c12 , system: UniProt P24941. Its ΔTm is 0.7 °C

Sample Nc1cccc(-c2cc3c(Oc4cccc(O)c4)ncnc3[nH]2)c1 , system: UniProt P24941. Its ΔTm is 0.9 °C

Sample Nc1cc2ncnc(Nc3cccc(Br)c3)c2cc1N , system: UniProt P24941. Its ΔTm is 1.4 °C

Sample CN(C)c1ccc(CC2C(=O)Nc3ccccc32)cc1 (centres undefined) , system: UniProt P24941. Its ΔTm is 1 °C
